- tested_system: human IP6K3 (Homo sapiens)
- Sequence (Q96PC2 whole entry): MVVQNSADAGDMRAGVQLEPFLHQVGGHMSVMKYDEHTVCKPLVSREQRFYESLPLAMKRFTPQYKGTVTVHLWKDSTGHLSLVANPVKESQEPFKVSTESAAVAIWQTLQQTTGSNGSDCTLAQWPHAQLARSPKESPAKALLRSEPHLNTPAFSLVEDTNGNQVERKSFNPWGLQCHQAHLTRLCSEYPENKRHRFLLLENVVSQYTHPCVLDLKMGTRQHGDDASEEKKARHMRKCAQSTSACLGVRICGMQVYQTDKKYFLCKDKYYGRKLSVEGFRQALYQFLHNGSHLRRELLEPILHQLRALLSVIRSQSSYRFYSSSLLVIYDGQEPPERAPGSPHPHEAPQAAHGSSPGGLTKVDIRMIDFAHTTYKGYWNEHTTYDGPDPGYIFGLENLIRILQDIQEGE
- assay_name: ADP-Glo kinase assay for IP6K activity
- condition_parameters: read-out: IC50 IP6K3; recombinant human IP6K3 […], ATP 15 μM, InsP6 50 μM, 2 h; mean ± S.D.
value_type: IC50 (nM)
Report the value in nM with no unit label.

Entry under review: O=[N+]([O-])c1ccc(CNc2nc(NCc3cccc(C(F)(F)F)c3)nc3nc[nH]c23)cc1 [TNP] . Reported IC50?
260

====

- tested_system: human IP6K1 (Homo sapiens, UniProt Q92551)
- Sequence (Q92551 whole entry): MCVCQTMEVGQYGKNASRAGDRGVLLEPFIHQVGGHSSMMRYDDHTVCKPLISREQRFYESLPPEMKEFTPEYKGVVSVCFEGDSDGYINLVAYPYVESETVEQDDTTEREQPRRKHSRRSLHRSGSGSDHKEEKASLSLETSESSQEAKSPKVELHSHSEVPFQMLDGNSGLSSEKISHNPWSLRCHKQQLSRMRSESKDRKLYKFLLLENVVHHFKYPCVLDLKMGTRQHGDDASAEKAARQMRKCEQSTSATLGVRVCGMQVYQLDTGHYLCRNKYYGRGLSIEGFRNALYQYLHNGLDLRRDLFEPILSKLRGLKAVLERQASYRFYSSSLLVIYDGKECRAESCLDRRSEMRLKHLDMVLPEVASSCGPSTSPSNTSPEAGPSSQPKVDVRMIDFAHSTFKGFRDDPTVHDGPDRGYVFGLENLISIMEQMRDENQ
- assay_name: ADP-Glo kinase assay for IP6K activity
- condition_parameters: recombinant human IP6K1 15 nM, ATP 15 μM, InsP6 50 μM, 2 h; mean ± S.D.
value_type: IC50 (µM)
Report the value in µM with no unit label.

Entry under review: O=[N+]([O-])c1ccc(CNc2nc(NCc3cccc(C(F)(F)F)c3)nc3nc[nH]c23)cc1 . Reported IC50?
0.27
